Biological target: Amine oxidase [flavin-containing] B (Bos taurus, UniProt P56560)
Sequence (P56560 whole entry): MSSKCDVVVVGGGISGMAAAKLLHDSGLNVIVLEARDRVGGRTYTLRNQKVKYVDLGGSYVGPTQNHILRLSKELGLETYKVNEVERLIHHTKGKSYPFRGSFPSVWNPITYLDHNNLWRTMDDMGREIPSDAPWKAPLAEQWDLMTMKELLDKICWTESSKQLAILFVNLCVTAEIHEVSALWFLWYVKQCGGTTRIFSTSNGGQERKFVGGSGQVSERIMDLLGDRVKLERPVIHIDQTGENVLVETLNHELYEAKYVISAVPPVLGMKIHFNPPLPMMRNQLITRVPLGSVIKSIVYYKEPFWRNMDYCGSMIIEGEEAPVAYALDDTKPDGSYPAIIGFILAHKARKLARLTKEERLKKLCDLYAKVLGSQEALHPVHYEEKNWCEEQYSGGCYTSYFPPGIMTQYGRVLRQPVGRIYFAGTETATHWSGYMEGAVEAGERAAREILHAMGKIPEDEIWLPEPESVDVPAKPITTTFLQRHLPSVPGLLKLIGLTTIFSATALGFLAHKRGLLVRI
IC50 by entry:
Reply numerically in µM, unit not repeated.

What IC50 value was documented for this compound, COC(=O)C(C)(C)NC(=O)c1ccc(NC(=O)C(=O)c2ccccc2NC(C)=O)cc1 ? 360

What IC50 value was documented for this compound, COC(=O)[C@@H](NC(=O)c1ccc(NC(=O)C(=O)c2ccccc2NC(C)=O)cc1)C(C)C ? 430

What IC50 value was documented for this compound, CCOC(=O)c1ccc(NC(=O)C(=O)c2ccccc2NC(C)=O)cc1 ? 990

What IC50 value was documented for this compound, COC(=O)C1(NC(=O)c2ccc(NC(=O)C(=O)c3ccccc3NC(C)=O)cc2)CCCC1 ? 380

---
What IC50 value was documented for this compound, COC(=O)[C@H](C)NC(=O)c1ccc(NC(=O)C(=O)c2ccccc2NC(C)=O)cc1 ? 730

What IC50 value was documented for this compound, COC(=O)[C@H](Cc1ccccc1)NC(=O)c1ccc(NC(=O)C(=O)c2ccccc2NC(C)=O)cc1 ? 280

What IC50 value was documented for this compound, COC(=O)CCNC(=O)C(=O)c1ccccc1NC(C)=O ? 990

What IC50 value was documented for this compound, COC(=O)C[C@H](NC(=O)c1ccc(NC(=O)C(=O)c2ccccc2NC(C)=O)cc1)C(=O)OC ? 790

What IC50 value was documented for this compound, COC(=O)CCCCCNC(=O)c1ccc(NC(=O)C(=O)c2ccccc2NC(C)=O)cc1 ? 780

What IC50 value was documented for this compound, COC(=O)CCCCCNC(=O)C(=O)c1ccccc1NC(C)=O ? 590

What IC50 value was documented for this compound, COC(=O)CCNC(=O)c1ccc(NC(=O)C(=O)c2ccccc2NC(C)=O)cc1 ? 530

What IC50 value was documented for this compound, COC(=O)[C@H](CC(C)C)NC(=O)C(=O)c1ccccc1NC(C)=O ? 480
